Tested on: Escherichia coli ATCC 25922
CONDITION CONTEXT: ATCC 25922
Where a SMILES comes first, the peptide text is derived from it. [ ]: non-standard residue; d: D form. The star is where a group is joined. Phe(4-tBu) = CC(C)(C)c1ccc(C[C@H](N)C(=O)O)cc1; Bip = N[C@@H](Cc1ccc(-c2ccccc2)cc1)C(=O)O; OBn = c1ccc(CO*)cc1
READOUT NAME: MIC E. coli

[[record]]
compound = "COC(=O)[C@H](CCCNC(=N)N)NC(=O)[C@@H](N)Cc1ccc(C(C)(C)C)cc1 [tBuFR-OMe] (H-[Phe(4-tBu)]-Arg-OMe; N-terminus assumed)"
value_reported = ">300.0 µg/mL"

[[record]]
compound = "N=C(N)NCCC[C@H](NC(=O)[C@H](CCCNC(=N)N)NC(=O)[C@@H](N)Cc1c[nH]c2ccccc12)C(=O)N[C@@H](Cc1c[nH]c2ccccc12)C(N)=O [WRRW] (H-WRRW-NH2; N-terminus assumed)"
value_reported = ">100 µg/mL"


Query: MIC E. coli; subject: C[C@H](NC(=O)[C@H](C)NC(=O)[C@H](CCCNC(=N)N)NC(=O)[C@@H](N)Cc1c[nH]c2ccccc12)C(=O)N[C@@H](Cc1ccc(-c2ccccc2)cc1)C(=O)N[C@@H](CCCNC(=N)N)C(N)=O [WRAABR-NH2] (H-WRAA[Bip]R-NH2; N-terminus assumed)
150 µg/mL

Query: MIC E. coli; subject: COC(=O)[C@H](CCCNC(=N)N)NC(=O)[C@H](Cc1c[nH]c2ccccc12)NC(=O)C1CCCCC1
>200 (>200) μg/ml

Query: MIC E. coli; subject: C[C@H](N)C(=O)N[C@@H](C)C(=O)N[C@@H](Cc1ccc(-c2ccccc2)cc1)C(=O)N[C@@H](Cc1ccc(-c2ccccc2)cc1)C(=O)N[C@@H](CCCNC(=N)N)C(=O)N[C@@H](CCCNC(=N)N)C(N)=O [AABBRR-NH2] (H-AA[Bip][Bip]RR-NH2; N-terminus assumed)
20 to 35 µg/mL

Query: MIC E. coli; subject: N=C(N)NCCC[C@H](N)C(=O)N[C@H](Cc1c[nH]c2ccccc12)C(=O)OCc1ccccc1 [Rw-OBzl] (H-Arg-[dW]-OBn; N-terminus assumed)
>300 µg/mL

Query: MIC E. coli; subject: N=C(N)NCCC[C@H](NC(=O)[C@H](Cc1c[nH]c2ccccc12)NC(=O)[C@@H](N)CCCNC(=N)N)C(=O)N[C@@H](Cc1c[nH]c2ccccc12)C(=O)OCc1ccccc1 [RWRW-OBzl, H-L-Arg-L-Trp-L-Arg-L-Trp-OBzl] (H-RWRW-OBn)
75 µg/mL

Query: MIC E. coli; subject: N=C(N)NCCC[C@H](NC(=O)[C@@H](N)Cc1c[nH]c2ccccc12)C(=O)N[C@@H](Cc1c[nH]c2ccccc12)C(N)=O [WRW] (H-Trp-Arg-Trp-NH2; N-terminus assumed)
>100 µg/mL

Query: MIC E. coli; subject: N=C(N)NCCC[C@H](NC(=O)[C@H](N)Cc1c[nH]c2ccccc12)C(=O)N[C@@H](Cc1c[nH]c2ccccc12)C(=O)OCc1ccccc1 [wRW OBz] (H-[dW]-Arg-Trp-OBn)
75 µg/mL

###

System: Staphylococcus aureus ATCC 25923
CONDITION CONTEXT: Table 8, second column
Where no end group is shown, it is not given here.
# maps each entry to its MIC S. aureus
The answer is to be given in μM/ml; state only the numeric part.

[[record]]
substance = "AWRWRA-NH2 Pmc+: hexapeptide amide having the Pmc group (also: Pmc group, position not given here)"
readout_name = "MIC S. aureus"
value_reported = 2.3

[[record]]
substance = "WWAARR-NH2 Pmc+: hexapeptide amide having the Pmc group (also: Pmc group, position not given here)"
readout_name = "MIC S. aureus"
value_reported = 4.5

[[record]]
substance = "WRAAWR-NH2 Pmc+: hexapeptide amide having the Pmc group (also: Pmc group, position not given here)"
readout_name = "MIC S. aureus"
value_reported = 2.3


API: the following record is the query input.
Query: MIC S. aureus; subject: AAWWRR-NH2 Pmc+: hexapeptide amide having the Pmc group (also: Pmc group, position not given here)
2.3

###

System: Escherichia coli ATCC 25922
CONDITION CONTEXT: ATCC 25922
Where a SMILES comes first, the peptide text is derived from it. [ ]: non-standard residue; d: D form. The star is where a group is joined. Trp(2-Pmc) = Cc1c(C)c(S(=O)(=O)c2[nH]c3ccccc3c2C[C@H](N)C(=O)O)c(C)c2c1OC(C)(C)CC2; Bip = N[C@@H](Cc1ccc(-c2ccccc2)cc1)C(=O)O; OBn = c1ccc(CO*)cc1
READOUT NAME: MIC E. coli

// solved cases for MIC E. coli follow
[[record]]
compound = "COC(=O)[C@H](CCCNC(=N)N)NC(=O)[C@H](Cc1c[nH]c2ccccc12)NC(=O)Cc1c[nH]c2ccccc12 [Ind WR OMe, Ind-Trp-Arg-OMe]"
value_reported = ">200 (>200) μg/ml"

[[record]]
compound = "N=C(N)NCCC[C@H](NC(=O)[C@@H](N)Cc1c[nH]c2ccccc12)C(=O)N[C@@H](Cc1c[nH]c2ccccc12)C(=O)OCc1ccccc1 [WRW OBz] (H-Trp-Arg-Trp-OBn)"
value_reported = "75 µg/mL"

[[record]]
compound = "NCCCC[C@H](N)C(=O)N[C@@H](Cc1c[nH]c2ccccc12)C(=O)OCc1ccccc1 [KW-Obzl] (H-Lys-Trp-OBn; N-terminus assumed)"
value_reported = ">300 µg/mL"

[[record]]
compound = "Cc1c(C)c(S(=O)(=O)c2[nH]c3ccccc3c2C[C@H](N)C(=O)N[C@@H](Cc2ccc(-c3ccccc3)cc2)C(=O)N[C@@H](CCCNC(=N)N)C(=O)N[C@@H](CCCNC(=N)N)C(N)=O)c(C)c2c1OC(C)(C)CC2 [WBRR-NH2 Pmc+] (H-[Trp(2-Pmc)][Bip]RR-NH2; N-terminus assumed)"
value_reported = ">100 µg/mL"

[[record]]
compound = "N=C(N)NCCC[C@H](NC(=O)Cc1c[nH]c2ccccc12)C(=O)N[C@@H](Cc1c[nH]c2ccccc12)C(=O)OCc1ccccc1 [Ind RW OBz, Ind-Arg-Trp-OBzl]"
value_reported = ">200 (>200) μg/ml"


Notebook: pull reported MIC E. coli for Escherichia coli ATCC 25922, entry C[C@H](NC(=O)[C@H](C)NC(=O)[C@H](CCCNC(=N)N)NC(=O)[C@@H](N)Cc1c[nH]c2ccccc12)C(=O)N[C@@H](Cc1c[nH]c2ccccc12)C(=O)N[C@@H](CCCNC(=N)N)C(N)=O [WRAAWR-NH2] (H-WRAAWR-NH2; N-terminus assumed)
>200 µg/mL

Notebook: pull reported MIC E. coli for Escherichia coli ATCC 25922, entry N=C(N)NCCC[C@@H](N)C(=O)N[C@H](Cc1c[nH]c2ccccc12)C(=O)OCc1ccccc1 [rw OBz] (H-[dR]-[dW]-OBn)
>200 (>200) μg/ml

Notebook: pull reported MIC E. coli for Escherichia coli ATCC 25922, entry NCCCC[C@H](N)C(=O)N[C@@H](Cc1ccccc1)C(=O)OCc1ccccc1 [KF-Obzl]
>300 µg/mL

###

Test system: Escherichia coli ATCC 25922
CONDITION CONTEXT: ATCC 25922
Where a SMILES comes first, the peptide text is derived from it. [ ]: non-standard residue; d: D form. The star is where a group is joined. Bip = N[C@@H](Cc1ccc(-c2ccccc2)cc1)C(=O)O; OBn = c1ccc(CO*)cc1
READOUT NAME: MIC E. coli (µg/mL)
The answer is to be given in µg/mL; state only the numeric part.

// solved cases for MIC E. coli follow
[[record]]
molecule = "N=C(N)NCCC[C@@H](NC(=O)[C@H](N)Cc1c[nH]c2ccccc12)C(=O)N[C@H](Cc1c[nH]c2ccccc12)C(=O)OCc1ccccc1 [wrw OBz] (H-[dW]-[dR]-[dW]-OBn)"
unit_annotation = "µg/mL"
value_reported = 75

[[record]]
molecule = "N=C(N)NCCC[C@H](N)C(=O)N[C@@H](Cc1c[nH]c2ccccc12)C(=O)N[C@H](CCCNC(=N)N)C(=O)N[C@H](Cc1c[nH]c2ccccc12)C(=O)OCc1ccccc1 [RWrw-OBzl, H-L-Arg-L-Trp-D-Arg-D-Trp-OBzl] (H-RW[dR][dW]-OBn)"
unit_annotation = "µg/mL"
value_reported = 75

[[record]]
molecule = "C[C@H](N)C(=O)N[C@@H](Cc1c[nH]c2ccccc12)C(=O)N[C@@H](CCCNC(=N)N)C(=O)N[C@@H](Cc1ccc(-c2ccccc2)cc1)C(=O)N[C@@H](CCCNC(=N)N)C(=O)N[C@@H](C)C(N)=O [AWRBRA-NH2] (H-AWR[Bip]RA-NH2; N-terminus assumed)"
unit_annotation = "µg/mL"
value_reported = 35


API: the following record is the query input.
Query: MIC E. coli; subject: C[C@H](NC(=O)[C@H](C)NC(=O)[C@H](CCCNC(=N)N)NC(=O)[C@H](Cc1ccc(-c2ccccc2)cc1)NC(=O)[C@H](CCCNC(=N)N)NC(=O)[C@@H](N)Cc1c[nH]c2ccccc12)C(N)=O [WRBRAA-NH2] (H-WR[Bip]RAA-NH2; N-terminus assumed)
150
